- Test system: tumor cells
- ASSAY INFO: Mitochondrial membrane potential, JC-1 (read-out 48 h)
- Assay type: cell-based
- EXPERIMENTAL CONDITIONS: Jily cells, JC-1, 48 h; read-out: Mitochondrial membrane potential (read-out 48 h) Jily
pEC50: −log10 of the molar value.
OBSERVATION TYPE: pEC50

MOLECULE	RESULT
Cc1ccc(OC(C)C)c(C(=O)c2oc3ccc(Cl)cc3c2N)c1 [Example 16]	7.00 to 8.00
Nc1c(C(=O)c2ccccc2N2CCOCC2)sc2ncccc12 [Example 122]	< 6.00
C=CCOc1ccc2oc(C(=O)c3cc(F)ccc3OCC)cc2c1 [Example 67]	7.00 to 8.00
COc1ccc(OC(C)C)c(C(=O)c2oc3ccc(Cl)cc3c2N)c1 [Example 15]	6.00 to 7.00
